test system: BLK; conditions: concentration: 1 μM, replicates: in singlicate; n = 1;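 note: KINOMEscan kinase panel screen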
Kind request: treat 40% as inclusive, so %Inh at 40% or higher is Satisfied, anything lower is Not satisfied.

Worked set:
# lineNotation, assignedLabel
records = [
    ("O=c1cc(N2CCOCC2)nc2n(Cc3cccc(Cl)c3Cl)ccn12", "Not satisfied"),
    ("CN(C)CCN(C)C(=O)c1cc(-c2ccncc2)c(-c2ccc(Cl)c(O)c2)o1.Cl.Cl", "Not satisfied"),
    ("Cn1ccc2ncnc(Oc3cccc(C(=O)Nc4ccccc4)c3)c21", "Not satisfied"),
]

Below: the item to evaluate.
Would you say Cc1c(O)cccc1Nc1ccnc2ccc(C(F)(F)F)cc12.Cl shows %Inh at minimum 40%?
Satisfied

====

tested on: AKT3; conditions: concentration: 1 μM, replicates: in singlicate; n = 1
For each entry below, report its %Inh value.
Answers are plain numbers, in %.

# compound, studyTarget, %Inh [%]
measured = [
    ("Fc1cccc(COc2nnc(-c3ccc4c(c3)CCO4)o2)c1", "AKT3", 11),
    ("O=S(=O)(c1ccc(-c2ccnc3[nH]ccc23)cc1)N1CCCC1", "AKT3", 0),
    ("COc1cc2ncn(-c3cc(OCC4CCCO4)c(C(N)=O)s3)c2cc1OC (stereo not drawn)", "AKT3", 0),
    ("COc1ccccc1-c1ccc2c(NC(=O)C3CC3)n[nH]c2n1", "AKT3", 3),
    ("O=C(Nc1n[nH]c2cc(-c3cccc(F)c3F)ccc12)C1CC1", "AKT3", 1),
]

Give %Inh for each listed item.
1. O=c1cc(N2CCOCC2)nc2n(Cc3cccc(Cl)c3Cl)ccn12
2. COc1ccc(CNC(=O)NC2CCN(c3ccnc(Nc4cc(OC)c(OC)c(OC)c4)n3)C2)cc1 (stereo not drawn)
3. Cc1cccc(-c2nc(-c3ccc(S(C)(=O)=O)cc3)sc2-c2ccnc(NCCc3ccccc3)c2)c1

[10, 0, 12]

// recorded %Inh for Clc1cc(Cl)cc(Nc2ccnc(Nc3cc(Cl)cc(Cl)c3)n2)c1 : 0

====

tested on: PCTK3; construct: gene CDK18; conditions: concentration: 1 μM, replicates: in singlicate; n = 1
Kind request: treat 7% as inclusive, so %Inh at 7% or higher is satisfied, anything lower is not satisfied.

# compound, assignedLabel
measured = [
    ("O=C(Nc1n[nH]c2nc(-c3nccs3)c(Br)cc12)C1CC1", "satisfied"),
]

Would you say Cc1ccc(NC(=O)Nc2cc(C(C)(C)C)nn2-c2ccccc2)cc1 shows %Inh at minimum 7%?
satisfied

Would you say COc1cc(Nc2nccc(N3CCC(NC(=O)Nc4cc(C)ccc4C)C3)n2)cc(OC)c1OC (stereo not shown) shows %Inh at minimum 7%?
satisfied

Would you say CC(=O)Nc1nc2cnc(Nc3cc(NC(=O)c4cccc(CCC#N)c4)ccc3C)nc2s1 shows %Inh at minimum 7%?
satisfied

Would you say Cc1cccc(-c2nc(-c3ccc(S(C)(=O)=O)cc3)sc2-c2ccnc(NCCc3ccccc3)c2)c1 shows %Inh at minimum 7%?
not satisfied

Would you say Cl.Oc1ccc(-c2nc(-c3ccccc3)[nH]c2-c2ccncc2)cc1 shows %Inh at minimum 7%?
satisfied

Would you say Cc1cccc(-c2nc(Nc3ccc4[nH]ncc4c3)c3ccccc3n2)n1 shows %Inh at minimum 7%?
satisfied

Would you say CCCc1ccc(S(=O)(=O)NC2CCN(c3ccnc(Nc4ccc(F)cc4)n3)C2)cc1 (stereo not shown) shows %Inh at minimum 7%?
satisfied

Would you say CCn1c(-c2cccnc2O)nc2cnccc21 shows %Inh at minimum 7%?
not satisfied

Would you say Cc1ccccc1-n1cnc2c(N)ncnc21 shows %Inh at minimum 7%?
not satisfied

Would you say COC(=O)c1c(-c2ccccc2)c2cc(OC)ccc2c(=O)n1Cc1ccccc1 shows %Inh at minimum 7%?
satisfied

Would you say CS(=O)(=O)c1ccc(-c2c(-c3ncn[nH]3)sc(N3CCOCC3)c2C#N)cc1 shows %Inh at minimum 7%?
satisfied

Would you say Cl.NC(=O)c1cccc(Nc2nccc(Nc3ccc(Oc4cccc(Cl)c4)c(Cl)c3)n2)c1 shows %Inh at minimum 7%?
satisfied
